As shown below, each of these compounds has a reported fold decrease in NMB receptor affinity compared with cyclo SS-octa (#1) value.
# target_desc: rat NMB receptor (Rattus norvegicus, UniProt P24053)
# Construct: a full length NMB-preferring bombesin receptor clone generated from rat esophagus; expressed in transfected cells
# Sequence (P24053 1-390): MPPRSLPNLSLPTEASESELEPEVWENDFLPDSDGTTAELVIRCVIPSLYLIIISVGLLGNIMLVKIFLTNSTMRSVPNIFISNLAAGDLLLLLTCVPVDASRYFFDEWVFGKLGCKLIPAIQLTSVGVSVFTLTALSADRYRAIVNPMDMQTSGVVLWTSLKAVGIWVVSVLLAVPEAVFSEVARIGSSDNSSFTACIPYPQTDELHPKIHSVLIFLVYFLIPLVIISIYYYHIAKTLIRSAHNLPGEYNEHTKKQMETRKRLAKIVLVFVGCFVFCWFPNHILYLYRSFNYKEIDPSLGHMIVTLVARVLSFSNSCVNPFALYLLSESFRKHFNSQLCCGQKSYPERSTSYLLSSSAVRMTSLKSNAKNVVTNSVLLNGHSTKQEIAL
# experiment_description: Binding of 125I-[D-Tyr0]NMB to NMB-R transfected BALB 3T3 cells
# setup_conditions: structure-function comparison from Table 1
Where a SMILES comes first, the peptide text is derived from it. Bridges are numbered along the chain shown (N, C = ends). [ ]: non-standard residue; d: D form. 2Nal = N[C@@H](Cc1ccc2ccccc2c1)C(=O)O; d2Nal = N[C@H](Cc1ccc2ccccc2c1)C(=O)O
reported_property: fold decrease in NMB receptor affinity compared with cyclo SS-octa (#1)

compound	reported_value
CC(C)[C@@H]1NC(=O)[C@H](CCCCN)NC(=O)[C@@H](Cc2c[nH]c3ccccc23)NC(=O)[C@H](Cc2ccc(O)cc2)NC(=O)[C@@H](NC(=O)[C@H](N)Cc2ccccc2)CSSC[C@@H](C(=O)N[C@@H](Cc2ccc3ccccc3c2)C(N)=O)NC1=O [Analog #4] (H-[dF]CY[dW]KVC[2Nal]-NH2; disulfide 2-7)	4 to 7 fold
NCCCC[C@@H]1NC(=O)[C@@H](Cc2c[nH]c3ccccc23)NC(=O)[C@H](Cc2ccc(O)cc2)NC(=O)[C@@H](NC(=O)[C@H](N)Cc2ccc3ccccc3c2)CSSC[C@@H](C(=O)N[C@@H](Cc2ccc3ccccc3c2)C(N)=O)NC(=O)[C@H](Cc2ccc3ccccc3c2)NC1=O [Analog #3] (H-[d2Nal]CY[dW]K[2Nal]C[2Nal]-NH2; disulfide 2-7)	2 to 3 fold
CC(C)[C@@H]1NC(=O)[C@H](CCCCN)NC(=O)[C@@H](Cc2c[nH]c3ccccc23)NC(=O)[C@H](Cc2ccc(O)cc2)NC(=O)[C@@H](NC(=O)[C@H](N)Cc2c[nH]c3ccccc23)CSSC[C@@H](C(=O)N[C@@H](Cc2ccc3ccccc3c2)C(N)=O)NC1=O [Analog #12] (H-[dW]CY[dW]KVC[2Nal]-NH2; disulfide 2-7)	4 to 7 fold
